studySystem: T1, Human Id1: Histidine (human, UniProt P41134 1-155, limits assumed)
T1 construct: Fusion protein made in E. coli from vector pGW07; also called h-Id1: his; not shown: His tag
T1 sequence (looked up): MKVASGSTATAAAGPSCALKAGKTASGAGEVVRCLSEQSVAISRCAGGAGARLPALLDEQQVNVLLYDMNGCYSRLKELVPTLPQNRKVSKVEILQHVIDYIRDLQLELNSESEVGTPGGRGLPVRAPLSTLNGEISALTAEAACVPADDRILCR
experimentalDetails: ELISA, Ab 0.010 µg/ml
quantity: A450

binder	result
rabbit monoclonal anti-mouse/human Id3, clone #BCH-4/#16-1 (antibody, V domains shown, Rabbit IgG from a rabbit hybridoma; also called m/h Id3 MoAb 16-1) VH: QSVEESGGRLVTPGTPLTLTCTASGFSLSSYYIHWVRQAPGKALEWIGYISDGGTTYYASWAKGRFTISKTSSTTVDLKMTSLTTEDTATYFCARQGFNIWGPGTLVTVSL VL: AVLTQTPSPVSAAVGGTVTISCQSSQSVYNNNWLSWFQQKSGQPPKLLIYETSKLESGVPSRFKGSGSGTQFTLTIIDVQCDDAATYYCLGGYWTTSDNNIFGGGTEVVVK	0.042 A450
rabbit monoclonal anti-mouse/human Id3, clone #BCH-4/#6-1 (antibody, V domains shown, Rabbit IgG from a rabbit hybridoma; also called m/h Id3 MoAb 6-1) VH: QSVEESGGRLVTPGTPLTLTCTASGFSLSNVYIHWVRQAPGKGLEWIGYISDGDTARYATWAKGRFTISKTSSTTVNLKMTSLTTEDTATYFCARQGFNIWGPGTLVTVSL VL: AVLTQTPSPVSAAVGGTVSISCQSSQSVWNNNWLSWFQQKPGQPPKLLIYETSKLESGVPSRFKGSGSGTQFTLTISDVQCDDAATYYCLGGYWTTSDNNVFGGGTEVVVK	0.049 A450
rabbit monoclonal anti-mouse/human Id3, clone #BCH-4/#42-1 (antibody, V domains shown, Rabbit IgG from a rabbit hybridoma; also called m/h Id3 MoAb 42-1) VH: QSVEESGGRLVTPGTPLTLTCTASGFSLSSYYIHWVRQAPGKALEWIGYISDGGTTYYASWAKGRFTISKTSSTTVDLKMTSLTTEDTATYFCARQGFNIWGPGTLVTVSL VL: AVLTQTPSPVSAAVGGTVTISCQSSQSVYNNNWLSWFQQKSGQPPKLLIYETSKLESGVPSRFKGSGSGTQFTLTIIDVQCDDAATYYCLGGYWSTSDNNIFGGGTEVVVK	0.045 A450
rabbit monoclonal anti-human Id3, clone #BCH-4/#3-3 (antibody, V domains shown, Rabbit IgG from a rabbit hybridoma; also called h Id3 MoAb 3-3) VH: QSVEESGGRLVTPGTPLTLTCTVSGIDLSSYAMSWVRQAPGKGLEWIGVIFPSNNVYYASWAKGRFTISKTSTTVDLKITSPTTEDTATYFCASMGAFDSWGPGTLVTVSS VL: QVLTQTPSPVSAAVGGTVTINCQASQSIYNDNDLAWFQQKPGQPPKLLIYDASTLTSGVPSRFKGSGSGTQFTLTISDLDCDDAATYYCAARYSGNIYGFGGGTEVVVK	0.046 A450
rabbit monoclonal anti-mouse/human Id3, clone #BCH-4/#17-3 (antibody, V domains shown, Rabbit IgG from a rabbit hybridoma; also called m/h Id3 MoAb 17-3; BCH-3/#17-3) VH: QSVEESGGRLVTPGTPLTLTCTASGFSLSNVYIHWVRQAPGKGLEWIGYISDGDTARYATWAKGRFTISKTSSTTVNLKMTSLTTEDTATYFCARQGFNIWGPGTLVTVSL VL: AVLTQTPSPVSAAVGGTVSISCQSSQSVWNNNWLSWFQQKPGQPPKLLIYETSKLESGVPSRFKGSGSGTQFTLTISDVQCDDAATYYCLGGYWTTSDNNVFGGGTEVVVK	0.046 A450
